tested on: S. Typhimurium ATCC14028; experiment: Static peg assay for prevention of biofilm formation (Calgary device, crystal violet); format: cell-based, Salmonella Typhimurium; conditions: 25° C., 24 hours, Table 15; read-out: (1) IC50 (biofilm inhibition)
Field 'label' (enum: Yes / No). Set to Yes when IC50 is strictly under 20 µM; else No.

                                   compound  category_label
0  CCCCCCCCCCCCCCN1c2nccc[n+]2CC1(O)c1ccccc1 (racemic) [Compound 14]              No
1  OC1(c2ccc(Cl)cc2)C[n+]2cccnc2N1C1CCCCCCC1 (centres unmarked) [Compound 66]             Yes

Say whether its IC50 is strictly beneath 20 µM. Entry: CCCCCCCCN1c2nccc[n+]2CC1(O)c1ccc(OC)cc1 (centres unmarked) [Compound 46]
Yes

Now try OC1(c2ccccc2)C[n+]2cccnc2N1C1CCCCCC1 (centres unmarked) [Compound 59] .
No

Same question, CCCCCCCCN1c2nccc[n+]2CC1(O)c1cccc(Br)c1 (centres unmarked) [Compound 56] this time
Yes

Now consider CCCCCCCCCCN1c2nccc[n+]2CC1(O)c1ccc(OC)cc1 (centres unmarked) [Compound 47] .
Yes

Request: CCCCCCCN1c2nccc[n+]2CC1(O)c1ccccc1 (racemic) [Compound 7]
No

Also CCCCCCCCN1c2nccc[n+]2CC1(O)c1ccc([N+](=O)[O-])cc1 (centres unmarked) [Compound 35] ?
Yes

And the next one, CCCCCCCC[n+]1c(-c2ccc(-c3ccc([N+](=O)[O-])cc3)cc2)cn2cccnc21.[O-][Cl+3]([O-])([O-])[O-] ?
Yes

====

Examples of compounds with documented IC50 follow.
system: Pseudomonas aeruginosa PA14; experiment: Static peg assay for prevention of biofilm formation (Calgary device, crystal violet); type: cell-based; settings: 25° C., Table 17; read-out: P. aeruginosa IC50 (biofilm formation)
Give a bare numeral; the unit µM is implied.

// solved cases for IC50 follow
In [3]: df
Out[3]:
                                   compound  assay_endpoint  recorded_measurement
0  CCCCCCCCN1c2nccc[n+]2CC1(O)c1cccc(Br)c1 (centres unmarked)            IC50                    29
1  CCCCCCCCN1c2nccc[n+]2CC1(O)c1ccc(-c2ccc(-c3ccccc3)cc2)cc1 (centres unmarked)            IC50                   336
2  CCCCCCCCN1c2nccc[n+]2CC1(O)c1ccc(S(C)(=O)=O)cc1 (centres unmarked)            IC50                  99.9
3  CCCCCCCCN1c2nccc[n+]2CC1(O)c1ccc(SC)cc1 (centres unmarked)            IC50                  36.5

Now consider a different compound.
Observed IC50 on Pseudomonas aeruginosa PA14 for CCCCCCCCN1c2nccc[n+]2CC1(O)c1ccc(-c2ccc([N+](=O)[O-])cc2)cc1 (centres unmarked) , please.
215

====

system: Pseudomonas aeruginosa PA14; assay: Static peg assay for prevention of biofilm formation (Calgary device, crystal violet); assay type: cell-based; conditions: 25° C., Table 16; read-out: P. aeruginosa IC50 (biofilm formation)
pIC50: −log10 of the molar value.
pIC50 listing for selected compounds.

>>> print(df.to_string())
                                   compound  assay_endpoint  recorded_measurement
0  CCCCCCCCCCCCCN1c2nccc[n+]2CC1(O)c1ccc(Cl)cc1 (racemic)           pIC50                < 3.10

Could you tell me which pIC50 is on file for CCCCCCCCCCCCN1c2nccc[n+]2CC1(O)c1ccc(Cl)cc1 (racemic) ?
< 3.10

Now consider CCCCCCCCCCCCN1c2nccc[n+]2CC1(O)c1ccccc1 (racemic) .
< 3.10

Moving on to CC(C)N1c2nccc[n+]2CC1(O)c1ccccc1 (racemic)
< 3.40

Follow-up entry: CCCCCCCCCCCCCN1c2nccc[n+]2CC1(O)c1ccccc1 (racemic)
< 3.10

Entry to check: CCCCN1c2nccc[n+]2CC1(O)c1ccccc1 (racemic)
< 3.40

====

test system: Pseudomonas aeruginosa PA14; assay: Static peg assay for prevention of biofilm formation (Calgary device, crystal violet); assay type: cell-based; details: 25° C., 24 hours, Table 15; read-out: (2) IC50 (biofilm inhibition)
assay_endpoint: pIC50
# pIC50: negative log10 of molar concentration; output just the value

Worked examples, 3 compounds total:
>>> df
                                   compound  recorded_measurement
0  CCCCCCCCN1c2nccc[n+]2CC1(O)c1ccc(OC)cc1 (stereo not drawn)                  4.87
1  CCCCCCCCN1c2nccc[n+]2CC1(O)c1ccc(S(C)(=O)=O)cc1 (stereo not drawn)                  4.94
2  CCCCCCCCCCN1c2nccc[n+]2CC1(O)c1ccc(Cl)cc1 (racemic)                  3.71

Which pIC50 is listed for CCCCCCCCN1c2nccc[n+]2CC1(O)c1ccc(Cl)cc1 (racemic) ?
4.93

Also, CCCCCCCCCCCN1c2nccc[n+]2CC1(O)c1ccc(Cl)cc1 (racemic) please.
3.69

Note, next up: CCCCCCCCCCCCCN1c2nccc[n+]2CC1(O)c1ccccc1 (racemic)
4.77

# iterate: CCCCCCCCCCCCN1c2nccc[n+]2CC1(O)c1ccccc1 (racemic)
5.02

====

system: S. Typhimurium ATCC14028; test: Static peg assay for prevention of biofilm formation (Calgary device, crystal violet); assay type: cell-based, Salmonella Typhimurium; conditions: 25° C., Table 16; read-out: S. Typhimurium IC50 (biofilm formation)
# note: boundary value 200 µM maps to Not met; IC50 below it maps to Met

Before answering, review these 3 worked examples.
                                   molecule  category_label
0  CCCCCN1c2nccc[n+]2CC1(O)c1ccccc1 (racemic)         Not met
1  CCCCCN1c2nccc[n+]2CC1(O)c1ccc(Br)cc1 (stereo not drawn)             Met
2  CCCCN1c2nccc[n+]2CC1(O)c1ccc(Cl)cc1 (racemic)             Met

IC50 strictly < 200 µM for this molecule? CCCCCCCCCCN1c2nccc[n+]2CC1(O)c1ccc(F)cc1 (stereo not drawn)
Met

Try this molecule too: CCCCN1c2nccc[n+]2CC1(O)c1ccc([N+](=O)[O-])cc1 (stereo not drawn)
Not met

Another molecule to check: CCCCCCCCCCCCCCN1c2nccc[n+]2CC1(O)c1ccccc1 (racemic)
Met

Same thing, different molecule: CCCCN1c2nccc[n+]2CC1(O)c1ccc(F)cc1 (stereo not drawn)
Met

How about this molecule: CCCCCCCCN1c2nccc[n+]2CC1(O)c1ccc(Cl)c(Cl)c1 (stereo not drawn)
Met

Now the molecule CCCCCCCCCCCCN1c2nccc[n+]2CC1(O)c1ccccc1 (racemic)
Met

Try the molecule CN1c2nccc[n+]2CC1(O)c1cccc([N+](=O)[O-])c1 (stereo not drawn)
Not met

Try this molecule too: CCCCCCCCCN1c2nccc[n+]2CC1(O)c1ccccc1 (racemic)
Met

Note, next up: CN1c2nccc[n+]2CC1(O)c1ccc(F)cc1 (stereo not drawn)
Not met

====

tested on: Pseudomonas aeruginosa PA14; assay: Static peg assay for prevention of biofilm formation (Calgary device, crystal violet); assay type: cell-based; details: 25° C., 24 hours, Table 15; read-out: (2) IC50 (biofilm inhibition)
Measured IC50 of individual entries

Please look up its IC50: CCCCCCCCN1c2nccc[n+]2CC1(O)c1cccc(Br)c1 (stereo not drawn)
~13.2 µM

And the next one, CCCCCCCN1c2nccc[n+]2CC1(O)c1ccc(Cl)cc1 (racemic) ?
~12.5 µM

Please answer likewise for CCCCCCCCN1c2nccc[n+]2CC1(O)c1ccc(Cl)c(Cl)c1 (stereo not drawn)
~12.3 µM

====

system: Pseudomonas aeruginosa PA14; assay: Static peg assay for prevention of biofilm formation (Calgary device, crystal violet); type: cell-based; conditions: 25° C., Table 16; read-out: P. aeruginosa IC50 (biofilm formation)
Listed next: entries and their corresponding IC50.

Guide cases for IC50, answers given:
In [3]: df
Out[3]:
                                   compound  recorded_measurement
0  CCCCCCCCCCCN1c2nccc[n+]2CC1(O)c1ccc(Cl)cc1 (racemic)              > 800 µM
1  CCCCCCCCCCCN1c2nccc[n+]2CC1(O)c1ccccc1 (racemic)              > 800 µM

Now look at this one.
Can you look up the measured IC50 of CCCCCCCCCCCCCCN1c2nccc[n+]2CC1(O)c1ccc(Cl)cc1 (racemic) for me?
> 800 µM

Data credit: patent US20130029981A1
